Biological target: LsrK (Salmonella typhimurium, UniProt Q8ZKQ6)
Sequence (Q8ZKQ6 whole entry): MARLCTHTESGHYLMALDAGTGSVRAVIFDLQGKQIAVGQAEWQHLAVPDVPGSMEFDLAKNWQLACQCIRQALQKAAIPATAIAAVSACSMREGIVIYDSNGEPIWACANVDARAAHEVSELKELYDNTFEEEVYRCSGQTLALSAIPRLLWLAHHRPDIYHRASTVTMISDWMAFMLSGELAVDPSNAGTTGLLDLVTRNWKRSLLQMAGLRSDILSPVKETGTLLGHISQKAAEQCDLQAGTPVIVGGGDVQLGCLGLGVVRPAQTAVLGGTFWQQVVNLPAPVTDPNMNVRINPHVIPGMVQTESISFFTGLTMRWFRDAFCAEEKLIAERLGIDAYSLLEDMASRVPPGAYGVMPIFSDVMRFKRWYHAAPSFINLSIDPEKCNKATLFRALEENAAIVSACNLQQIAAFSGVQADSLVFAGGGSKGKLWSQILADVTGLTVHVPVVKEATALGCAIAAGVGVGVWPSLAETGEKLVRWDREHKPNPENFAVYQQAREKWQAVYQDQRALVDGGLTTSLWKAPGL
Experiment: biochemical
Format: biochemical, S. typhimurium
For each record, write down the corresponding inhibition at 50 µM.

For the molecule shown here, CC(=O)Nc1ccccc1 [ACETANILIDE] , give the reported inhibition at 50 µM.
1%

Next entry: COC(=O)c1c(C)cc(O)cc1O [METHYL ORSELLINATE]
0%

Next entry: COc1cc([C@@H]2c3cc4c(cc3[C@@H](O[C@@H]3O[C@@H]5CO[C@@H](c6cccs6)O[C@H]5[C@H](O)[C@H]3O)[C@H]3COC(=O)[C@H]23)OCO4)cc(OC)c1O [TENIPOSIDE]
2%

Next entry: Cc1c(Cl)cccc1Nc1ccccc1C(=O)O
97%

Next entry: CCN(CC)C(=O)c1ccc(O)c(OC)c1
0%

Next entry: CCOC(=O)c1cncn1[C@H](C)c1ccccc1 [ETOMIDATE]
2%

Next entry: CC(=O)[C@H]1CC[C@H]2[C@@H]3CC=C4C[C@@H](OC(=O)CCC(=O)O)CC[C@]4(C)[C@H]3CC[C@]12C [PREGNENOLONE SUCCINATE]
4%

Next entry: CCCCCC(=O)O[C@]1(C(C)=O)CC[C@H]2[C@@H]3CCC4=CC(=O)CC[C@]4(C)[C@H]3CC[C@@]21C [HYDROXYPROGESTERONE CAPROATE]
3%

* * *

For each record, write down the corresponding inhibition at 50 µM.
Molecular target: LsrK (Salmonella typhimurium, UniProt Q8ZKQ6)
Test: biochemical
Assay type: biochemical, S. typhimurium
Counter-ions that a name gives are not always drawn.
Just the number in %, nothing appended.

For the compound shown here, O=C(O)/C=C(\CC(=O)O)C(=O)O , give the reported inhibition at 50 µM.
1

Next entry: C=CCc1ccccc1OCC(O)CNC(C)C (stereo not shown)
0

Next entry: CC(=O)N[C@@H](CC(C)C)C(=O)O
0

Next entry: O=C(c1ccc(OCCN2CCCCC2)cc1)c1c(-c2ccc(O)cc2)sc2cc(O)ccc12 [RALOXIFENE HYDROCHLORIDE]
0

Next entry: CCCCCCCCCCCCCCCCC(C(=O)O)C(O)(CC(=O)O)C(=O)O (stereo not shown)
157

Next entry: COc1cccc(OC)c1C(=O)N[C@@H]1C(=O)N2[C@@H]1SC(C)(C)[C@@H]2C(=O)O [METHICILLIN SODIUM]
1

Next entry: CC(C)[C@@H]1NC(=O)[C@H](C)OC(=O)[C@@H](C(C)C)NC(=O)[C@@H](C(C)C)OC(=O)[C@H](C(C)C)NC(=O)[C@H](C)OC(=O)[C@@H](C(C)C)NC(=O)[C@@H](C(C)C)OC(=O)[C@H](C(C)C)NC(=O)[C@H](C)OC(=O)[C@@H](C(C)C)NC(=O)[C@@H](C(C)C)OC1=O
1

Next entry: CC(C)[C@H](N)C(=O)OCCOCn1cnc2c(=O)[nH]c(N)nc21 [VALACYCLOVIR HYDROCHLORIDE]
2

Next entry: Cc1ccc(S(=O)(=O)NC(=O)NN2CC3CCCC3C2)cc1 (stereo not shown) [GLICLAZIDE]
1

Next entry: CC1(C)S[C@@H]2[C@H](NC(=O)[C@H](NC(=O)N3CCNC3=O)c3ccccc3)C(=O)N2[C@H]1C(=O)O [AZLOCILLIN SODIUM]
0

Next entry: COC(=O)[C@H]1[C@H]2C[C@@H]3c4[nH]c5cc(OC)ccc5c4CCN3C[C@H]2C[C@@H](OC(=O)c2cc(OC)c(OC)c(OC)c2)[C@@H]1OC
1

Next entry: O=c1c(-c2cc(O)c(O)c(O)c2)coc2cc(O)c(O)c(O)c12
90

Next entry: O=C(O)CCCCCCCC(=O)O
3

Next entry: COC1=CC(=O)O[C@@H](/C=C/c2ccccc2)C1
0

Next entry: CC(C)(C)NC[C@H](O)c1ccc(O)c(CO)c1 [LEVALBUTEROL HYDROCHLORIDE]
8

Next entry: COc1ccc(-c2c(O)c3c(OC)c4c(cc3oc2=O)OC(C)(C)C=C4)cc1
111

Next entry: O=C(O)c1cc(O)c2c(c1)[C@H]([C@H]1c3cc(C(=O)O)cc(O)c3C(=O)c3c(O[C@@H]4O[C@H](CO)[C@@H](O)[C@H](O)[C@H]4O)cccc31)c1cccc(O[C@@H]3O[C@H](CO)[C@@H](O)[C@H](O)[C@H]3O)c1C2=O [SENNOSIDE A]
0

Next entry: Cc1cnc(NC(=O)C2=C(O)c3ccccc3S(=O)(=O)N2C)s1 [MELOXICAM SODIUM]
0

Next entry: Fc1ccc([C@@H]2CCNC[C@H]2COc2ccc3c(c2)OCO3)cc1 [PAROXETINE HYDROCHLORIDE]
1

Next entry: CC1=C(CCC(=O)O)c2cc3[nH]c(cc4nc(cc5[nH]c(cc1n2)c(C)c5C(C)O)C(C)=C4C(C)O)c(C)c3CCC(=O)O (stereo not shown)
55

Next entry: CC(C)(C)NC(=O)[C@H]1CC[C@H]2[C@@H]3CC[C@H]4NC(=O)C=C[C@]4(C)[C@H]3CC[C@]12C [FINASTERIDE]
1

Next entry: CN(C)c1nc(N(C)C)nc(N(C)C)n1
19

Next entry: NC(=O)C(c1ccccc1)(c1ccccc1)[C@@H]1CCN(CCc2ccc3c(c2)CCO3)C1 [DARIFENACIN HYDROBROMIDE]
2

Next entry: COc1cc(O)c(C(C)=O)c(OC)c1
0

Next entry: CC(=O)OCC(=O)[C@@]12OC(C)(C)O[C@@H]1C[C@H]1[C@@H]3C[C@H](F)C4=CC(=O)C=C[C@]4(C)[C@@]3(F)[C@@H](O)C[C@@]12C [FLUOCINONIDE]
3

Next entry: CC[N+](CC)(CC(=O)Nc1c(C)cccc1C)Cc1ccccc1 [DENATONIUM BENZOATE]
1

Next entry: C[C@H](N)[C@H](O)c1cccc(O)c1 [METARAMINOL BITARTRATE]
9

Next entry: C1CCC(C(CC2CCCCN2)C2CCCCC2)CC1 (stereo not shown) [PERHEXILINE MALEATE]
1

Next entry: Nc1ccc(S(=O)(=O)c2ccc(N)cc2)cc1
0

Next entry: CC1(C)S[C@@H]2[C@H](NC(=O)[C@H](C(=O)O)c3ccsc3)C(=O)N2[C@H]1C(=O)O [TICARCILLIN DISODIUM]
0

Next entry: CCCCCc1c2c(cc(O)c1C(=O)O)OC(=O)c1c(cc(OC)cc1C(=O)CCCC)O2
98
